Below are Kd values measured for Thyroid hormone receptor beta (Homo sapiens).
All answers are understood in nM, so give the number only.

>>> recorded_measurement("CCCCCc1ccc(C#Cc2cc(Cc3c(C)cc(OCC(=O)O)cc3C)cc(C(C)C)c2O)cc1")
0.52
>>> recorded_measurement("Cc1cc(OCC(=O)O)cc(C)c1Cc1cc(C#Cc2ccc([N+](=O)[O-])cc2)c(O)c(C(C)C)c1")
20
>>> recorded_measurement("Cc1cc(OCC(=O)O)cc(C)c1Cc1cc(C#Cc2ccccc2)c(O)c(C(C)C)c1")
37

// switching to the query molecule
Form: item Cc1cc(OCC(=O)O)cc(C)c1Cc1cc(-c2ccc([N+](=O)[O-])cc2)c(O)c(C(C)C)c1 ; test system Thyroid hormone receptor beta (Homo sapiens); Kd: 35

Hey, just so you know, these numbers are from ChEMBL document CHEMBL1135520.
